measured_on: Phosphatidylinositol 4,5-bisphosphate 3-kinase catalytic subunit beta isoform (Homo sapiens)
Sequence (P42338 whole entry, canonical isoform): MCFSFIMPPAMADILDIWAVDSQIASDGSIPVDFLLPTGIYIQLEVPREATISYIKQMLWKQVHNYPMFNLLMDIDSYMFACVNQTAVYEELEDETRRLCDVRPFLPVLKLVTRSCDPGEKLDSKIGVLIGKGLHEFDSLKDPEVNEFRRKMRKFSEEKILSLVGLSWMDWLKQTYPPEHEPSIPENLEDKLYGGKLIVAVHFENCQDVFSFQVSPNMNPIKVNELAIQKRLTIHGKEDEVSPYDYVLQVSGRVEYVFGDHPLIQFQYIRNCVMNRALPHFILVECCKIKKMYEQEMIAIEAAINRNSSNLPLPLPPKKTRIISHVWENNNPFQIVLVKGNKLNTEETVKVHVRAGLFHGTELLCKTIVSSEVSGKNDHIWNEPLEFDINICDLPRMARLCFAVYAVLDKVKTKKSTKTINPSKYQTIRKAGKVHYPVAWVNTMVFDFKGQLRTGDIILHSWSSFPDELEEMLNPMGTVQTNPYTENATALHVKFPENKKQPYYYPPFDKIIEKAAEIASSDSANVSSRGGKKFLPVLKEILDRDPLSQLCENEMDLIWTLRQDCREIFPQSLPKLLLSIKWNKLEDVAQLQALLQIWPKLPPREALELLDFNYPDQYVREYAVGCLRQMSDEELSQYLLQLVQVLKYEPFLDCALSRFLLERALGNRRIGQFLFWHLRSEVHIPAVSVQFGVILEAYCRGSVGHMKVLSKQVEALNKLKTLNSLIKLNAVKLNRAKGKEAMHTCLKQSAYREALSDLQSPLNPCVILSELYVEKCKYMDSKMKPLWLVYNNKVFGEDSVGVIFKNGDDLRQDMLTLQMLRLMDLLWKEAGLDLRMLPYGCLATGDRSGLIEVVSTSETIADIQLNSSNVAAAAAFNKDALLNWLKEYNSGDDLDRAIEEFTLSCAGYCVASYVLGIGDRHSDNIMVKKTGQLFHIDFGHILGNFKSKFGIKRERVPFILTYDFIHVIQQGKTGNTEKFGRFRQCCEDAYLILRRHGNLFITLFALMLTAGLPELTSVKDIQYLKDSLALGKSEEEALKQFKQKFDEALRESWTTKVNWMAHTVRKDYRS
protocol: Inhibition of PI3Kbeta (unknown origin)
property: IC50
Note: state the figure and append the unit.

IC50 lookup needed for COc1cc(COC(=O)n2ncc3cc(-c4cnc(Cl)c(NS(=O)(=O)c5ccccc5)c4)cnc32)c([N+](=O)[O-])cc1OC , thanks.
83 nM

* * *

measured_on: Phosphatidylinositol 4,5-bisphosphate 3-kinase catalytic subunit gamma isoform (Homo sapiens)
Sequence (P48736 whole entry, canonical isoform): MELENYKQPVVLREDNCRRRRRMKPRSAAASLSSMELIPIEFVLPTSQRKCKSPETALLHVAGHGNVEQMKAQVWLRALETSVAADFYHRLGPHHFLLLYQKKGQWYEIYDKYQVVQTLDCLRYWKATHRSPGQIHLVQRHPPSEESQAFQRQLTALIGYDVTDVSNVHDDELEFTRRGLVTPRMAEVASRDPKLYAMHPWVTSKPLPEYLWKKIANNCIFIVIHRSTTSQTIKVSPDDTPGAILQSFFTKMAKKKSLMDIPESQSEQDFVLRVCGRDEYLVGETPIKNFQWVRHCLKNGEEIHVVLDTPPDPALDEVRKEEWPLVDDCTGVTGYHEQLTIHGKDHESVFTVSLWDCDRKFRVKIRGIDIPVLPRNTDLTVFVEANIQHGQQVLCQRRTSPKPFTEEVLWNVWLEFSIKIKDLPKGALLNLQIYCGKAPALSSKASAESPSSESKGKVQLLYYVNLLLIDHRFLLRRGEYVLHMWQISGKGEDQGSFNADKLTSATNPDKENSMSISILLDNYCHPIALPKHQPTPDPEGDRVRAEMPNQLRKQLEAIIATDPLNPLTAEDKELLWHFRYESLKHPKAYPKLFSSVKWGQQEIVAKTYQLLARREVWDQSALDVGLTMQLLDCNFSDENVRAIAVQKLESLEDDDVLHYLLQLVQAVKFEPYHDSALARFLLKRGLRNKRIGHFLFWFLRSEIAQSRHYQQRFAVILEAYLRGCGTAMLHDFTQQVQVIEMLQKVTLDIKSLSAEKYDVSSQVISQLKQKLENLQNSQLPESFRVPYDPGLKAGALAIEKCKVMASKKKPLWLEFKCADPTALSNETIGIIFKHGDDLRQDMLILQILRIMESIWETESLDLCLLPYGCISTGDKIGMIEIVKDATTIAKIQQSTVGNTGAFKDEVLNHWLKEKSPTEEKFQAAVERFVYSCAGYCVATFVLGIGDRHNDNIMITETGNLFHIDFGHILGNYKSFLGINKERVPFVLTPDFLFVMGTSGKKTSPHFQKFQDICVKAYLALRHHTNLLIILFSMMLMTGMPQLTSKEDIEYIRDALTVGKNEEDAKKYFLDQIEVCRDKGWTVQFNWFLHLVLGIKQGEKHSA
protocol: Inhibition of PI3Kgamma (unknown origin)
property: IC50 (nM)
Answer format: numeric, nM implied, no suffix.

Dear colleague, I am looking for the recorded IC50 of the following compound: COc1cc(COC(=O)n2ncc3cc(-c4cnc(Cl)c(NS(=O)(=O)c5ccccc5)c4)cnc32)c([N+](=O)[O-])cc1OC
84

These entries and their values trace back to ChEMBL document CHEMBL5365445.
